System: EKVX
Assay: NCI tumour cell line growth inhibition, 48 h
The source made the active and inactive calls. No stated cut-off is given here; in the data, active = GI50 up to about 1.1 µM and inactive = higher.
recorded_metric: GI50

Query: Item under review: CC(C)(C)OC(=O)NC1CC2(C=C(Br)C(=O)C(Br)=C2)OC1=O (configuration not stated) . Reported GI50?
Reply: 12.9 µM (inactive)

Query: Which GI50 is reported for this compound? COC(=O)c1ccc(/N=N/N(C)COc2ccc(C#N)cc2)cc1
Reply: > 100 µM (inactive)

Query: If you can, please state the reported GI50 value of CC1=CC[C@@H](C(C)(C)O)C[C@@H]1O .
Reply: > 5000 µM (inactive)

Query: Quick check: GI50 of CO[C@H](C)[C@](O)(C(=O)OCC1=CCN2CC[C@@H](O)[C@H]12)C(C)C ?
Reply: > 100 µM (inactive)

Each of the following entries comes with a recorded value; kindly state GI50 for each.
1. COc1ccc(C(=O)O/N=C2\CCCC\C2=C/c2ccccc2)cc1
2. Cc1nnc2n1N=C(CC(=O)c1ccc(O)cc1O)CN2N
3. O=C1NC(N2CCOCC2)=N/C1=C\c1cccs1
4. O=C1C=C(N2CCN(CCOCCO)CC2)C(=O)c2c(O)ccc(O)c21
5. C/C(=N\NC(N)=S)c1ccc(C)cc1C

Reply:
> 100 µM (inactive)
> 100 µM (inactive)
> 100 µM (inactive)
19.6 µM (inactive)
8.41 µM (inactive)

---

Tested on: MOLT-4
Experiment: NCI tumour cell line growth inhibition, 48 h
The source made the active and inactive calls. No stated cut-off is given here; in the data, active = GI50 up to about 1.1 µM and inactive = higher.
recorded_metric: GI50

Please review the following examples before continuing.
Query: Requested read-out GI50, target or system MOLT-4, entry CSc1cnn(CCC#N)c(=O)n1
Reply: 27.1 µM (inactive)

Query: # query: GI50 | item CC(C)CC(=O)NC(C(=O)NC(C(=O)NC(CC(C)C)C(O)CC(=O)NC(C)C(=O)NC(CC(C)C)C(O)CC(=O)O)C(C)C)C(C)C (stereo not given) | system: MOLT-4
Reply: > 100 µM (inactive)

Query: // lookup GI50 | system=MOLT-4 | key= O=C(/C=C/c1ccccc1)CC(=O)CCC(=O)Nc1ccc(Cl)cc1
Reply: > 100 µM (inactive)

Query: Missing value: GI50, MOLT-4, entry CO[C@H]1O[C@@H]2CO[C@@H](c3ccccc3)O[C@H]2[C@@H]2CC=CCC[C@]12O . Fill in?
Reply: 25.1 µM (inactive)

// next item, GI50 requested
Query: Observed GI50 on MOLT-4 for O=c1cc(N2CCNCC2)nc2ccccn12 , please.
Reply: > 100 µM (inactive)

---

System: UO-31
Test: NCI tumour cell line growth inhibition, 48 h
Activity calls are given as the source filed them. Cut-off read from the data, not from the text of the source: active = GI50 up to about 1.1 µM and inactive = higher.
recorded_metric: GI50

Look over these answered cases.
Query: Endpoint output: GI50 of O=C(NC(=S)Nc1ccccc1)c1ccc([N+](=O)[O-])cc1 . Value?
Reply: 45.8 µM (inactive)

Query: Fill in: GI50 of C=C1C[C@@H]2O[C@H]3[C@H]4[C@@H](C[C@@H](C)[C@@H](OC(C)=O)[C@H]42)[C@@H](C)CO[C@@]3(C)[C@H](OC(C)=O)C[C@H]1O is ___
Reply: 77.6 µM (inactive)

Query: Looking for the measured GI50 of CO[C@H](C)[C@](O)(C(=O)OCC1=CCN2CC[C@@H](O)[C@H]12)C(C)C , can you help?
Reply: > 100 µM (inactive)

Query: Entry COc1cc2ccnc([C@@H](OC(=O)c3ccccc3)c3ccc(OC)c(OC)c3OC)c2cc1OC has what GI50?
Reply: 18.9 µM (inactive)

Now consider the entry below.
Query: Any idea what its GI50 is? The compound is CCCCCCCCCc1cc(=O)c2c(O)cc(O)cc2o1
Reply: 16.9 µM (inactive)

---

I'd appreciate it if you could supply GI50 values for the items below.
Tested on: Malme-3M
Experiment: NCI tumour cell line growth inhibition, 48 h
Active and inactive are the calls of the source. Rule as the data show it: active = GI50 up to about 1.1 µM and inactive = higher.

Worked cases, GI50 given:
Query: Field request: GI50 | item: O=C(O)c1cc2c(cc1S(=O)(=O)O)C1C(C3C2C2(Cl)C(Cl)=C(Cl)C3(Cl)C2(Cl)Cl)C2(Cl)C(Cl)=C(Cl)C1(Cl)C2(Cl)Cl (stereo unspecified)
Reply: 64.7 µM (inactive)

Query: Need GI50 of O=c1cc(N2CCNCC2)nc2ccccn12 , thanks.
Reply: > 100 µM (inactive)

Query: Given the entry Clc1ccc(COC(Cn2ccnc2)c2ccc(Cl)cc2Cl)c(Cl)c1 (stereo unspecified) [MICONAZOLE NITRATE] , report its measured GI50.
Reply: 12.5 µM (inactive)

Query: Quick check: GI50 of CC#COP(=O)(OCC)OCC ?
Reply: > 100 µM (inactive)

Query: // lookup GI50 for CN(C)CCNC(=O)c1cccc2c(Nc3ccc(S(N)(=O)=O)cc3)c3ccccc3nc12
Reply: 1.49 µM (inactive)

Query: Fill blank: measured GI50 of the molecule O=C1NC2=C(CCCCC/C2=N\O)C12CCCCCC2 is ____.
Reply: > 100 µM (inactive)

Query: Sample CC(C(N)=O)N(C)C(=O)c1cnc2ccccc2c1 (stereo unspecified) — what was its GI50?
Reply: > 100 µM (inactive)

Query: GET /values?readout=GI50&item= Cc1ccc(N2C(=O)C3c4[nH]c5ccccc5c4C4CCC(C(C)(C)C)CC4C3C2=O)cc1 (stereo unspecified)
Reply: 6.9 µM (inactive)

Query: Form field: reported GI50 of COc1ccc(C(=O)Nc2ccccc2C#N)cc1
Reply: > 100 µM (inactive)

Query: What value of GI50 has been recorded for this entry: CCOC(=O)C(OCC1CC=CCC1)Sc1ccccc1 (stereo unspecified)
Reply: > 100 µM (inactive)

Moving on to another molecule below.
Query: Recorded GI50 for COc1ccc2c(c1)Cc1c-2[nH]c2cc3c(cc2c1=O)OCO3 , please?
Reply: 13.7 µM (inactive)

---

System: CCRF-CEM
Experiment: NCI tumour cell line growth inhibition, 48 h
The source made the active and inactive calls. No stated cut-off is given here; in the data, active = GI50 up to about 1.1 µM and inactive = higher.
Tick one outcome: Y = active, N = inactive

Query: Test call for this compound, please: CC[C@@H]([C@H](O)c1ccccc1Cl)[N+](=O)[O-]
Reply: N

Query: Recorded test call requested for O=S(O)CCCCCSSSCCCCCS(=O)O
Reply: N

Query: Could you kindly confirm the outcome this assay logged for CCn1c(=O)c2c3cc(O)ccc3oc2c2ccc(O)cc21 ?
Reply: N

Query: Please state the recorded outcome for this compound: N=c1c2ccccc2sc2nc3ccccc3n12
Reply: N

Query: Write down the call the test reported for this compound. Item: O=C(/C=C/c1ccccc1)CC(=O)CCC(=O)Nc1ccc(Cl)cc1
Reply: N

New cases:
Query: Record request — test call for O=C(NC(=S)Nc1ccccc1)c1ccc([N+](=O)[O-])cc1
Reply: N

Query: Dear colleague, could you share the recorded outcome for Cc1ccc2c(c1)c(=O)c1c(NCCN(C)C)ccc3nnn2c31 when you have a moment?
Reply: N

Query: Tell me the recorded outcome of this test for NC1CCCCC1.O=C(O)C(CP(=O)(O)O)=C(Cl)Cl .
Reply: N

Query: So what was the verdict on COC(=O)c1c(O)ccc2c1c1c(n2Cc2ccc(OC)cc2)C(=O)c2ccccc2C1=O in this test?
Reply: Y

Query: Recorded call for O=C1C(N2CCN(CCOCCO)CC2)=C(Cl)C(=O)c2ncccc21 ?
Reply: N

Query: Hello, I am checking results. What call was entered for COc1cc2c(cc1OCCCOc1cc3c(cc1OC)C(=O)N1CCC[C@H]1CN3)N=C[C@@H]1CCCN1C2=O ?
Reply: Y

---

Test system: SR
Test: NCI tumour cell line growth inhibition, 48 h
The source made the active and inactive calls. Cut-off read from the data, not from the text of the source: active = GI50 up to about 1.1 µM and inactive = higher.
Provide the reported GI50 of each item.

Query: Any idea what its GI50 is? The molecule is COc1cc(C(=O)Oc2c(C(C)=O)sc3c2c(=O)n(-c2ccccc2)c(=S)n3-c2ccccc2)cc(OC)c1OC
Reply: > 100 µM (inactive)

Could I get GI50 for every one of these entries?
1. O=c1[nH]c2nccn2c(Cl)c1Br
2. C=C(CCC(=O)N(CCc1c[nH]c2ccccc12)C(=O)c1ccccc1CSCC)C(=O)OC
3. O=C(C#Cc1ccccc1)C1=Cc2ccccc2OC1
4. C=C1C(=O)OC2CCN3CC=C(COC(=O)C(C)(O)C4(CO4)C1C)C23 (stereo not given)

Reply:
["22.4 µM (inactive)", "> 100 µM (inactive)", "7.23 µM (inactive)", "> 100 µM (inactive)"]

---

System: SNB-75
Assay: NCI tumour cell line growth inhibition, 48 h
Activity calls are given as the source filed them. Rule as the data show it: active = GI50 up to about 1.1 µM and inactive = higher. Where a SMILES comes first, the peptide text is derived from it. The star is where a group is joined. Boc = CC(C)(C)OC(=O)*; OBn = c1ccc(CO*)cc1
For each of the molecules below, state its GI50.

The examples below pair each entry with its known result.
Query: Please give the measured GI50 for this molecule: C=C1C(=O)O[C@@H]2C[C@@H](C)[C@@H]3C=CC(=O)[C@@]3(C)[C@@H](OC(=O)CCCC(=O)O[C@H]3[C@@H]4C(=C)C(=O)O[C@@H]4C[C@@H](C)[C@@H]4C=CC(=O)[C@]43C)[C@H]12
Reply: 0.113 µM (active)

Query: Please give the measured GI50 for this molecule: C=C1C(=O)O[C@@H]2[C@H](O)[C@@H](C)[C@@H]3C=CC(=O)[C@@]3(C)[C@H](OC(=O)C=C(C)C)[C@H]12
Reply: 1.04 µM (active)

Query: // returns reported GI50 for input CC(C)CC(NC(=O)OC(C)(C)C)C(=O)N1CCCC1C(=O)OCc1ccccc1 (stereo not drawn) (Boc-Leu-Pro-OBn; configuration not given here)
Reply: > 100 µM (inactive)

Query: Returns the measured GI50 for the input molecule. Input: O=C1C=C(O)C(=Cc2c(O)cc(O)cc2O)C(O)=C1
Reply: > 100 µM (inactive)

Query: If you can, please state the reported GI50 value of Nc1ncnc2c1cnn2Cc1ccc(Cl)cc1 .
Reply: 48.4 µM (inactive)

Query: Requested read-out: GI50. Entry: CCOC(=O)C(NC(=O)c1ccccc1)(Nc1ccc(S(=O)(=O)Nc2nc(C)cc(C)n2)cc1)C(F)(F)F (centres undefined)
Reply: > 100 µM (inactive)

I have 3 molecules here; please give me GI50 for each one.
1. CC[C@@H]([C@H](O)c1ccccc1Cl)[N+](=O)[O-]
2. CSC(C1c2ccccc2N(c2ccc(C)cc2)c2[nH]c(=O)n(C)c(=O)c21)S(=O)(=O)c1ccc(C)cc1 (centres undefined)
3. COC(=O)C(Cc1ccccc1)NC(=O)CSc1nnc(COc2ccc(Cl)cc2)n1-c1ccccc1 (centres undefined)

Reply:
1. 65.6 µM (inactive)
2. > 100 µM (inactive)
3. 23.8 µM (inactive)
